# assay.overview: NCI Yeast Anticancer Drug Screen. Data for the sgs1 mgt1 strain (AID 161);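 further: 0% = growth of cultures given vehicle only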
# condition.parameters: S. cerevisiae sgs1 mgt1 strain, at 50.0 µM
Compounds without any hit were thinned out: in the full panel of roughly 79,000, 15% have a hit. Activity calls are given as the source filed them. No stated cut-off is given here; in the data, active means growth inhibition above about 70%; inactive means the rest.
Outcome codes: true (1) = active, false (0) = inactive

test.smiles	category
O=C(NN1C(=O)c2cccc3cccc(c23)C1=O)NN1C(=O)c2cccc3cccc(c23)C1=O	true (1)
N#Cc1ccc(N=NN2CCOC2)cc1	false (0)
COc1ccccc1NC(=O)C1=C(C)NC(C)=C(C(=O)Nc2ccccc2OC)C1c1c(Cl)cccc1Cl	false (0)
COc1c(OC)c(C(C)C)c2c(c1C(=O)O)C(=O)OC2=O	false (0)
Cc1ccc(NC(=O)CSc2nnc(Cc3ccccc3)o2)c(C)c1	false (0)

Taken from PubChem BioAssay (NCI).
